Origin of measurements: the DeepSol protein solubility set

assay: soluble on expression in E. coli; label from the status in PepcDB or PDB records

| entry.sequence | soluble on expression in E. coli |
| --- | --- |
| AAQPADIVLTQTPSSLPVSVGEKVTMTCKSSQTLLYSNNQKNYLAWYQQKPGQSPKLLISWAFTRKSGVPDRFTGSGSGTDFTLTIGSVKAEDLAVYYCQQYSNYPWTFGGGTRLEIKRGGGGSGGGGSGGGGSGGGGSEVQLQQSGPEVVKTGASVKISCKASGYSFTGYFINWVKKNSGKSPEWIGHISSSYATSTYNQKFKNKAAFTVDTSSSTAFMQLNSLTSEDSAVYYCVRSGNYEEYAMDYWGQGTSVTVSS | soluble |
| SKLNERSVAHYALSDSPADHMGFLRTWGGPGTPPTPSGTGRRCWFVLKGNLLFSFESREGRAPLSLVVLEGCTVELAEAPVPEEFAFAICFDAPGVRPHLLAAEGPAAQEAWVKVLSRASFGYMRLVVRELESQLQDARQSLALQRRSSWKSVASRCKPQAPNHRAAGLENGHCLSKDSSPVGLVEEAGSRSAGWGLAEWELQGPASLLLGKGQSPVSPETSCFSTLHDWYGQEIVELRQCWQKRAQGSHSKCEEQDRP | soluble |
| MRVKGPSSRRKKKKILKLAKGYRGQRSRSYRRAKEAVMRALYYQYRDRKLRKREFRRLWIARINAAVRAYGLNYSTFINGLKKAGIELDRKILADMAVRDPQAFEQVVNKVKEALQVQ | soluble |
